The reported numbers originate from paper PMC7058304.

targetOrTestSystem: T1, Recombinant purified human PD-1 protein, residues Leu25-Thr168, with a C-terminal 6-His tag (Homo sapiens, UniProt Q15116)
T1 construct: programmed cell death protein 1 (PD-1), human, residues Leu25-Thr168; also called programmed cell death protein 1; PD-1-His monomer; source: bought: R&D Systems (catalog# 8986-PD, lot# DDJM0417041)
T1 sequence (Q15116 25-168): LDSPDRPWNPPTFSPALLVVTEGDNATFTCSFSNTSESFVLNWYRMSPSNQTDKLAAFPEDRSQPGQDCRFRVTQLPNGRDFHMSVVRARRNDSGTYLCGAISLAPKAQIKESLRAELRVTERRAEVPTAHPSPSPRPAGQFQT
protocolDetails: SPR; Biacore 8K, CMD-200M chip (3D-hydrogel); mAb captured on amine-coupled goat anti-human IgG Fc, PD-1-His monomer as analyte (100 nM top, 3-fold dilutions), 1200 s dissociation; 25 C, HBS-EP+ pH 7.4; 1:1 Langmuir fit, apparent constants
conditionNotes: both partners purified
Each entry below carries its reported koff.
Lab book: enter the figure in s⁻¹, no units written.

Previously resolved entries follow.
binder	koff, s⁻¹
mAb17 (antibody, V domains shown, IgG4; also called analog of camrelizumab; camre; source: HEK293 suspension cells, cotransfected, purified (Protein A)) VH: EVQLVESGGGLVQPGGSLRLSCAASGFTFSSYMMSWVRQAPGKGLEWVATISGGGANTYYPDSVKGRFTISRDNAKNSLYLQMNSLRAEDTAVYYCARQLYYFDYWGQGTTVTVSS VL: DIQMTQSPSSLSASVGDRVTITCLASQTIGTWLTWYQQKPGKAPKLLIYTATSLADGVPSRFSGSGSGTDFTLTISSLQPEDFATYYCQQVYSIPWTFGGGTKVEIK	0.000503
mAb23 (antibody, V domains shown, IgG4; also called analog of cemiplimab; cemip; source: HEK293 suspension cells, cotransfected, purified (Protein A)) VH: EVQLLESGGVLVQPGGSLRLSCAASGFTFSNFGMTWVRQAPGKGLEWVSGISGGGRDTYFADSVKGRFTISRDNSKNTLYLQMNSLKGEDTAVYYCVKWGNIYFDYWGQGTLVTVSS VL: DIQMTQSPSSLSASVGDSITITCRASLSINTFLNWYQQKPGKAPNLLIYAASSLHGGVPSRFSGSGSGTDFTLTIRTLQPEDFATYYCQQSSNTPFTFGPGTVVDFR	0.000212
mAb16 (antibody, V domains shown, IgG4; also called analog of dostarlimab; dostar; source: HEK293 suspension cells, cotransfected, purified (Protein A)) VH: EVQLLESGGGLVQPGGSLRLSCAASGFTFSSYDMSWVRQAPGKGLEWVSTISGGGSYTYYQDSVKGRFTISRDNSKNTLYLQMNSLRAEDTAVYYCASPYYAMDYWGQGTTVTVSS VL: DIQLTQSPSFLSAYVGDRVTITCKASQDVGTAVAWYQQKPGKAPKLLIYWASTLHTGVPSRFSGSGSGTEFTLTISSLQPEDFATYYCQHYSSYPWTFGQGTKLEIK	0.000287

Give the measured koff for mAb04 (antibody, V domains shown, IgG4; also called analog of retifanlimab; retifan; source: HEK293 suspension cells, cotransfected, purified (Protein A)) VH: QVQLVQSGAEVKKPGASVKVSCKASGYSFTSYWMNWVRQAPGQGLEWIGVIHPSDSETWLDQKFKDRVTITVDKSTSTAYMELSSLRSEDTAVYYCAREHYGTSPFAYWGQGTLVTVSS VL: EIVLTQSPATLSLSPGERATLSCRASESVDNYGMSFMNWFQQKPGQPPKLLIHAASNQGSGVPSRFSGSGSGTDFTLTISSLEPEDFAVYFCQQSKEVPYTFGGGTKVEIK 0.000253

Provide measured koff value, entry: mAb03 (antibody, V domains shown, IgG4; also called analog of tislelizumab; tisle; source: HEK293 suspension cells, cotransfected, purified (Protein A)) VH: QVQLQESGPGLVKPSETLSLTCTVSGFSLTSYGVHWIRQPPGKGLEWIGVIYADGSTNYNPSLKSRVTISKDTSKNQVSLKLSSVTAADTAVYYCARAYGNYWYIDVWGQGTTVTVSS VL: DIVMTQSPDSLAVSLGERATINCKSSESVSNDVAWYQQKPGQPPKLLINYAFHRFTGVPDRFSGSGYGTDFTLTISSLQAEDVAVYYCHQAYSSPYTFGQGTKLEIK 6.16e-05
